- TARGET: RPS6KA5 KD2 (human) (UniProt O75582)
- Sequence (O75582 whole entry, looked up): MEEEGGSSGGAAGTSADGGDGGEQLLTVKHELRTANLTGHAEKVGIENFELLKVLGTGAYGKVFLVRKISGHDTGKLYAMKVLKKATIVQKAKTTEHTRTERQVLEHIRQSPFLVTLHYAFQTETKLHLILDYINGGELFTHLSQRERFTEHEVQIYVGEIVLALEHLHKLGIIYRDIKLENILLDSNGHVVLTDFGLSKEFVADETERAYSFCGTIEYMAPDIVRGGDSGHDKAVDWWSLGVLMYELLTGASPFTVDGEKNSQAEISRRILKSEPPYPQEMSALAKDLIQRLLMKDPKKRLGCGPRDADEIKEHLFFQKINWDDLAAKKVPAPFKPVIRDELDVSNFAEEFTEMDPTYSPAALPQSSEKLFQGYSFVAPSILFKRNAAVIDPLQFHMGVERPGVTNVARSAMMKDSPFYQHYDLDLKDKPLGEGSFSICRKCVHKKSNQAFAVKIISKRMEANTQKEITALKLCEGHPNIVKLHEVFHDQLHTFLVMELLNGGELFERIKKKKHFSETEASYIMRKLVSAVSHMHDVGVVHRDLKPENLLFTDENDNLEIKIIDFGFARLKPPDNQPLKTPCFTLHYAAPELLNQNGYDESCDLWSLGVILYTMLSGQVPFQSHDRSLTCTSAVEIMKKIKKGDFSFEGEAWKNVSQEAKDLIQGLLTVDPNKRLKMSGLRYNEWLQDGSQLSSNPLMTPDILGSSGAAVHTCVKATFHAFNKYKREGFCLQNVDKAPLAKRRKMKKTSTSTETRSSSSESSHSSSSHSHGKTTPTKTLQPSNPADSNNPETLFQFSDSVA
- ASSAY COMMENT: radiometric filter-binding kinase assay, Kinase HotSpot
- CONDITION SET: compound 0.5 µM; ATP 10 µM
ASSAY ENDPOINT: residual activity (%)
Just the number in %, nothing appended.

O=C(c1ccccc1)c1ccc(N2CCOCC2)cc1O | 102
Cn1cc(/C=C2\C(=O)Nc3ccc(S(N)(=O)=O)cc32)c2ccccc21 | 80.9
O=c1[nH]c2ccccc2n1C1CCN(Cc2ccc(-c3nc4cc5[nH]cnc5cc4nc3-c3ccccc3)cc2)CC1 | 103
c1ccc(-c2cnc(Nc3ccc(OCCN4CCCC4)cc3)s2)cc1 | 104
CCOc1cc2ncnc(Nc3cccc(Br)c3)c2cc1OCC | 95.8
O=c1c(-c2ccc(F)cc2)c(-c2ccncc2)[nH]n1-c1ccc(Cl)cc1 | 93.5
COc1cc2c(cc1OC)-c1[nH]nc(Nc3cccc(F)c3)c1C2 | 96
Cc1cc(Nc2nc(-c3ccccc3)nc3ccccc23)n[nH]1 | 70.5
O=C(O)c1ccc2c3c1cccc3c(=O)n1c3ccccc3nc21 | 104
Nc1ncnc2c1cnn2-c1ccccc1 | 89

[ask] Provide measured residual activity value, entry: `CN[C@@H]1C[C@H]2O[C@@](C)([C@@H]1OC)n1c3ccccc3c3c4c(c5c6ccccc6n2c5c31)C(=O)NC4`
[reply] 1.24

[ask] Provide measured residual activity value, entry: `N#Cc1c(NC(=O)c2cccc3ccccc23)sc2c1CCCC2`
[reply] 99.6

* * *

- TARGET: CSNK1E (human)
- ASSAY COMMENT: radiometric filter-binding kinase assay, Kinase HotSpot
- CONDITION SET: compound 0.5 µM; ATP 10 µM
// not satisfied strictly below 90% in residual activity; satisfied otherwise

Would you please look over these solved cases?
COc1cc2c(cc1OC)-c1[nH]nc(Nc3cccc(F)c3)c1C2 | satisfied
O=C1NC(=O)c2c1c1c3ccccc3[nH]c1c1[nH]c3cc(Br)ccc3c21 | not satisfied
CCOc1cc2ncnc(Nc3cccc(Br)c3)c2cc1OCC | satisfied
CCc1nc(-c2ccc(OC)cc2)[nH]c1-c1ccncc1 | satisfied
O=c1c2ccccc2[nH]c(=S)n1CCN1CCC(=C(c2ccc(F)cc2)c2ccc(F)cc2)CC1 | satisfied

With those in mind, consider the next compound.
[ask] Could you verify whether the entry `O=C(c1ccccc1)c1ccc(N2CCOCC2)cc1O` shows residual activity of no less than 90%?
[reply] satisfied

* * *

- TARGET: BRAF (human)
- ASSAY COMMENT: radiometric filter-binding kinase assay, Kinase HotSpot
- CONDITION SET: compound 0.5 µM; ATP 10 µM
residual activity values, listed per item
Just the number in %, nothing appended.

CCCCc1c(-c2ccc(O)cc2)[nH]c2nccnc12 | 99.3

Here's the next entry for you.
[ask] Provide measured residual activity value, entry: `FC(F)(F)c1ccc(/C=C/c2nc(COc3ccc(CCCCn4ccnn4)cc3)co2)cc1`
[reply] 94.3

* * *

- TARGET: DAPK1 (human)
- ASSAY COMMENT: radiometric filter-binding kinase assay, Kinase HotSpot
- CONDITION SET: compound 0.5 µM; ATP 10 µM
ASSAY ENDPOINT: residual activity

The examples below pair each entry with its known result.
O=C(O)c1ccc2c3c1cccc3c(=O)n1c3ccccc3nc21 | 40.9%
Cn1cc(/C=C2\C(=O)Nc3ccc(S(N)(=O)=O)cc32)c2ccccc21 | 98.9%
O=c1cc(N2CCOCC2)oc2c(-c3ccccc3)cccc12 | 90.1%

[ask] Give residual activity for `Nc1ncnc2c1cnn2-c1ccccc1` tested on DAPK1 (human).
[reply] 98.5%
